# experiment_summary: qHTS of pediatric cancer cell lines to identify multiple opportunities for drug repurposing: Confirmatory screen for NB1643 cells (AID 1347109); further: nearly all actives have a fitted effect of over 45% in size
# particulars: NB1643 neuroblastoma cell viability; series mostly up to 45.9 µM
# Procedure: Drug repurposing or repositioning has been offered as a strategy for drug development in oncology programs. […] [1] Shen, M et al. Quantitative high-throughput phenotypic screening of pediatric cancer cell lines identifies multiple opportunities for drug repurposing. […] Cells were assayed in growth media at a density of 500-1,000 cells/well. […] After a 15 min incubation at room temperature, samples were analyzed for luminescence intensity using a ViewLux High-throughput CCD imager equipped with clear filters.
Records with an inconclusive call do not appear. The source made the active and inactive calls. The call rests on the fitted dose curve; in most records, active means well fitted cell-killing curve with a large enough effect; inconclusive means small, poorly fitted or top-dose-only effect, or effect the other way; inactive means no such curve, though single readings can be large or run the other way.
Respond with a class label; see active, inactive

Task: Hi, sorry to bother you, what did the test record for CC1(C)OC2=C(C(=O)c3ccccc3C2=O)[C@H](NCc2ccccc2)[C@H]1O ?
Result: active

Task: Let us now turn to Cc1cn2c(-c3cn[nH]c3)cnc2c(Nc2ccc(C(=O)N3CCNCC3)cc2F)n1
Result: active

Task: Would you mind doing Cc1nc2cnc3ccc(C#Cc4cccnc4)cc3c2n1-c1ccc(C(C)(C)C#N)cc1 as well?
Result: active

Task: Try C#Cc1cccc(Nc2ncnc3cc(OC)c(OCCCCCCC(=O)NO)cc23)c1 next.
Result: active

Task: Item: CN(C)CC(C)(C)CNc1nn2c(-c3ccccc3)nnc2cc1C1CCC1
Result: inactive

Task: Now consider CCS(=O)(=O)c1cccc(-c2cc(C(=O)NC3CCN(C)CC3)c(C)c3[nH]c4ncc(C)cc4c23)c1 .
Result: active

More entries:
Task: Could you please tell me the result logged for Cc1cc(N2CCOCC2)cc2[nH]c(-c3c(NC[C@@H](O)c4cccc(Cl)c4)cc[nH]c3=O)nc12 in this assay?
Result: active

Task: Consider next the compound CN1CCN(c2cc(C(=O)Nc3ccc4c(c3)-c3c(c(C(N)=O)nn3-c3ccc(F)cc3)CC4)c(Cl)cn2)CC1 in the same way.
Result: active

Task: Also check CC=C1NC(=O)[C@H]2CSSCCC=C[C@H](CC(=O)N[C@H](C(C)C)C(=O)N2)OC(=O)[C@H](C(C)C)NC1=O
Result: inactive

Task: What would you report for CC[C@@]1(O)C(=O)OCc2c1cc1n(c2=O)Cc2cc3cc(O)ccc3nc2-1 ?
Result: active

Task: How about this compound: Cc1ccc(C(=O)Nc2cccc(C(F)(F)F)c2)cc1-c1ccc2nc(NCCN3CCOCC3)ncc2c1
Result: active

Task: Do the same for Cc1ccc(-c2ncn(-c3ccc(Nc4nccc(-c5cccc(N6CCOCC6)c5)n4)cc3)n2)cn1 please
Result: active

====

# Test system: ATS95
# experiment_summary: qHTS profiling for inhibitors of Plasmodium falciparum proliferation (AID 504749); further: nearly all actives have a fitted effect of over 60% in size
# particulars: P. falciparum in erythrocytes, SYBR Green DNA, 72 h; series mostly up to 28.7 µM
Inconclusive results are not listed. Activity calls are given as the source filed them. The call rests on the fitted dose curve; in most records, active means well fitted inhibition curve with a large enough effect; inconclusive means small, poorly fitted or top-dose-only effect; inactive means flat fitted curve, though single readings scatter.
Respond using exactly one of the listed classes: yes (1) (active), no (0) (inactive)

As a guide, the following entries are already answered.
Task: Fill in: this test's call for COC(=O)C1=C(C)NC(C)=C(C(=O)OCCN2CCN(C(c3ccccc3)c3ccccc3)CC2)C1c1cccc([N+](=O)[O-])c1 (stereo not given) is ___
Result: yes (1)

Task: Can you handle COc1c(N2C[C@@H]3CCCN[C@H]3C2)c(F)cc2c(=O)c(C(=O)O)cn(C3CC3)c12 next?
Result: no (0)

Task: Then this compound: CN1c2cc(O)c(N=NC(N)=O)cc2CC1S(=O)(=O)O (stereo not given)
Result: no (0)

Task: Also O=c1[nH]c(=O)n(C2CCCO2)cc1F (stereo not given) , if possible.
Result: no (0)

Task: Please give the result for O=C(O)CO.[NH2-].[NH2-].[Pt+2] too.
Result: no (0)

Task: Lookup Nc1ccn([C@@H]2O[C@H](CO)[C@H](O)C2(F)F)c(=O)n1
Result: yes (1)

Further cases:
Task: Call for entry CC1(C)O[C@@H]2C[C@@H]3[C@H]4C[C@@H](F)C5=CC(=O)C=C[C@]5(C)[C@@]4(F)[C@@H](O)C[C@]3(C)[C@]2(C(=O)CO)O1 :
Result: no (0)

Task: COc1cc(C(=O)NS(=O)(=O)c2ccccc2C)ccc1Cc1cn(C)c2ccc(NC(=O)OC3CCCC3)cc12 ?
Result: no (0)

Task: Quick one: CC=CC1=C(C(=O)O)N2C(=O)[C@H](NC(=O)[C@H](N)c3ccc(O)cc3)[C@@H]2SC1
Result: no (0)

Task: Could you do the same for CC[C@H]1CN2CCc3cc(OC)c(OC)cc3[C@H]2C[C@@H]1C[C@@H]1NCCc2cc(OC)c(OC)cc21 , please?
Result: yes (1)
